- SUBJECT_OF_TEST: alpha2C adrenergic receptors (Homo sapiens)
- Construct: expressed in transfected cells; host or cells: NIH-3T3
- Sequence (P18825 1-462): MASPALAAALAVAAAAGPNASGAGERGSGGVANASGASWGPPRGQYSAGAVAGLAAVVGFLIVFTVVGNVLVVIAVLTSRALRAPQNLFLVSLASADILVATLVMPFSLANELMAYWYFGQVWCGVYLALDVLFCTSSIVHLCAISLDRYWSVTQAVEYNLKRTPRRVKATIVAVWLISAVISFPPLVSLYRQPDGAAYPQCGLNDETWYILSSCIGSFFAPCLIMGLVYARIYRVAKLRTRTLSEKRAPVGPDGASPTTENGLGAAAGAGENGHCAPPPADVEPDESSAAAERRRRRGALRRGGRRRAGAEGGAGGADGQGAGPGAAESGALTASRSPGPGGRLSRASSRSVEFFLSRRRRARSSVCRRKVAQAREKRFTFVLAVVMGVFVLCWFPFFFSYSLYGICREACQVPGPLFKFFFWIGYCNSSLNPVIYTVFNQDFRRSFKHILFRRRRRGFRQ
- TEST_PROTOCOL: Receptor Selection and Amplification Technology (RSAT) assay, alpha2C
- Assay type: cell-based
- ASSAY_CONDITIONS: fraction of maximal effect of standard full agonist brimonidine (UK14304)

| COMPOUND | Alpha 2C intrinsic activity |
| --- | --- |
| Cc1ccc2c(c1)C(Cc1c[nH]c(=S)[nH]1)CC2 (stereo not drawn) | 0.69 |
| S=c1[nH]cc(CC2CCC=C2Cl)[nH]1 (stereo not drawn) | 0.55 |
| Cc1cccc2c1CC(c1c[nH]c(=S)[nH]1)C2 (stereo not drawn) | 0.62 |
| Fc1cccc(C2=CCC[C@H]2Cc2c[nH]c(=S)[nH]2)c1 | 0.37 |
| CC1=C(Br)C(Cc2c[nH]c(=S)[nH]2)CC1 (stereo not drawn) | 0.48 |
| COc1ccc2c(c1)CCC2Cc1c[nH]c(=S)[nH]1 (stereo not drawn) | 0.46 |

---

- SUBJECT_OF_TEST: alpha2B adrenergic receptors (Homo sapiens, UniProt P18089)
- Sequence (P18089 whole entry): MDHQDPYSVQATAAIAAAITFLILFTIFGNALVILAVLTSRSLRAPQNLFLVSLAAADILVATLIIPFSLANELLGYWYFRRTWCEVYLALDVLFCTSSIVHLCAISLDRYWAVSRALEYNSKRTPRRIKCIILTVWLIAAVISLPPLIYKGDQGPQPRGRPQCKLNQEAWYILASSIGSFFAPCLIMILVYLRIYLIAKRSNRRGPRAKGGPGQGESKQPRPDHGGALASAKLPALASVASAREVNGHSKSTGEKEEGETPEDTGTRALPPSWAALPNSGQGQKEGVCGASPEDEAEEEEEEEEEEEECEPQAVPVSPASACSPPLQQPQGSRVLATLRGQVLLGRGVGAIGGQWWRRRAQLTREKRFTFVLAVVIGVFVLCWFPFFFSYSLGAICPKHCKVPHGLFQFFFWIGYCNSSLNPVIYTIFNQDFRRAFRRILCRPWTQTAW
- TEST_PROTOCOL: Receptor Selection and Amplification Technology (RSAT) assay, alpha2B
- ASSAY_CONDITIONS: NA = not active at concentrations less than 10 micromolar, read-out: Alpha 2B EC50
param class (str): category from EC50; see ranges zone 1 (below 40 nM), zone 2 (40 nM to below 500 nM), zone 3 (500 nM or more)

| COMPOUND | LABEL |
| --- | --- |
| S=c1[nH]cc(C2Cc3ccc(Br)cc3C2)[nH]1 (stereo not drawn) | zone 1 |
| S=c1[nH]cc(CC2CCc3sccc3C2)[nH]1 (stereo not drawn) [drawing 22] | zone 1 |
| O=C1c2ccsc2CCC1Cc1c[nH]c(=S)[nH]1 (stereo not drawn) | zone 2 |
| Fc1cc2c(cc1F)C(Cc1c[nH]c(=S)[nH]1)CC2 (stereo not drawn) | zone 2 |
| S=c1[nH]cc(CC2CCC3=C2CCC3)[nH]1 (stereo not drawn) [drawing 15] | zone 1 |
| O=C1c2ccc(O)cc2CCC1Cc1c[nH]c(=S)[nH]1 (stereo not drawn) | zone 3 |
| CC1=CCC(Cc2c[nH]c(=S)[nH]2)OC1 (stereo not drawn) | zone 2 |
| S=c1[nH]cc(CC2CCC=C2c2ccc(Cl)s2)[nH]1 (stereo not drawn) | zone 3 |
| Cc1ccc(C2=CCCC2Cc2c[nH]c(=S)[nH]2)cc1 (stereo not drawn) | zone 3 |
| CCC1=C(c2ccc(F)cc2)C(Cc2c[nH]c(=S)[nH]2)CC1 (stereo not drawn) | zone 2 |
| CC1CC(Cc2c[nH]c(=S)[nH]2)C(=O)c2ccccc21 (stereo not drawn) | zone 3 |

---

- SUBJECT_OF_TEST: alpha2B adrenergic receptors (Homo sapiens, UniProt P18089)
- Construct: expressed in transfected cells; host or cells: NIH-3T3
- TEST_PROTOCOL: Receptor Selection and Amplification Technology (RSAT) assay, alpha2B
- Format: cell-based
- ASSAY_CONDITIONS: fraction of maximal effect of standard full agonist brimonidine (UK14304)
Alpha 2B intrinsic activity vs 0.9: at or above is criterion met, below is criterion not met.

| COMPOUND | LABEL |
| --- | --- |
| Fc1ccc(C2=CCCC2Cc2c[nH]c(=S)[nH]2)cc1 (stereo not drawn) | criterion not met |
| Cc1ccc(C)c2c1CCC2Cc1c[nH]c(=S)[nH]1 (stereo not drawn) | criterion not met |
| Fc1cccc2c1CCC2Cc1c[nH]c(=S)[nH]1 (stereo not drawn) | criterion met |
| Cc1ccc(C2=CCCC2Cc2c[nH]c(=S)[nH]2)cc1 (stereo not drawn) | criterion not met |
| S=c1[nH]cc(CC2C=CCCC2)[nH]1 (stereo not drawn) | criterion met |

---

Entries annotated with measured Alpha 2B intrinsic activity
- SUBJECT_OF_TEST: alpha2B adrenergic receptors (Homo sapiens, UniProt P18089)
- Construct: expressed in transfected cells; host or cells: NIH-3T3
- TEST_PROTOCOL: Receptor Selection and Amplification Technology (RSAT) assay, alpha2B
- Format: cell-based
- ASSAY_CONDITIONS: fraction of maximal effect of standard full agonist brimonidine (UK14304)
QUANTITY_NAME: Alpha 2B intrinsic activity

| COMPOUND | QUANTITY_NAME | MEAS_VALUE |
| --- | --- | --- |
| S=c1[nH]cc(C[C@@H]2CCc3ccccc32)[nH]1 | Alpha 2B intrinsic activity | 0.97 |
| S=c1[nH]cc(C2CCc3ccccc3C2)[nH]1 (stereo not drawn) | Alpha 2B intrinsic activity | 1.03 |
| O=C1c2c(F)cccc2CCC1Cc1c[nH]c(=S)[nH]1 (stereo not drawn) | Alpha 2B intrinsic activity | 0.76 |
| CC1=C(c2ccc(F)cc2)C(Cc2c[nH]c(=S)[nH]2)CC1 (stereo not drawn) | Alpha 2B intrinsic activity | 0.78 |
| Fc1cc(F)c2c(c1)CC(c1c[nH]c(=S)[nH]1)C2 (stereo not drawn) | Alpha 2B intrinsic activity | 0.81 |
| O=C1C2=C(CCC1Cc1c[nH]c(=S)[nH]1)NCCC2 (stereo not drawn) | Alpha 2B intrinsic activity | 0.98 |
| S=c1[nH]cc(C[C@H]2CCc3ccccc3C2)[nH]1 | Alpha 2B intrinsic activity | 0.41 |
| CCC1=CCC(Cc2c[nH]c(=S)[nH]2)CC1 (stereo not drawn) | Alpha 2B intrinsic activity | 0.68 |
| O=C1c2ccccc2CC[C@@H]1Cc1c[nH]c(=S)[nH]1 | Alpha 2B intrinsic activity | 0.79 |
| CC1=C(c2ccc(F)cc2)C(Cc2c[nH]c(=S)[nH]2)CCC1 (stereo not drawn) | Alpha 2B intrinsic activity | 0.97 |
| S=c1[nH]cc(C2Cc3ccc(Br)cc3C2)[nH]1 (stereo not drawn) | Alpha 2B intrinsic activity | 0.87 |
| O=C1c2cccnc2CCC1Cc1c[nH]c(=S)[nH]1 (stereo not drawn) | Alpha 2B intrinsic activity | 0.6 |

---

- SUBJECT_OF_TEST: alpha2B adrenergic receptors (Homo sapiens, UniProt P18089)
- Construct: expressed in transfected cells; host or cells: NIH-3T3
- TEST_PROTOCOL: Receptor Selection and Amplification Technology (RSAT) assay, alpha2B
- Type: cell-based
- ASSAY_CONDITIONS: fraction of maximal effect of standard full agonist brimonidine (UK14304)

| COMPOUND | SUBJECT_OF_TEST | Alpha 2B intrinsic activity |
| --- | --- | --- |
| O=C1c2ccccc2CCC1Cc1c[nH]c(=S)[nH]1 (stereo not shown) | alpha2B adrenergic receptors (Homo sapiens, UniProt P18089) | 1.0 |
| S=c1[nH]cc(CC2CCc3cc(Br)ccc32)[nH]1 (stereo not shown) | alpha2B adrenergic receptors (Homo sapiens, UniProt P18089) | 0.85 |
| CC1=C(c2cc(F)cc(F)c2)C(Cc2c[nH]c(=S)[nH]2)CC1 (stereo not shown) | alpha2B adrenergic receptors (Homo sapiens, UniProt P18089) | 0.89 |
| CC(C)CC1=CCCC1Cc1c[nH]c(=S)[nH]1 (stereo not shown) | alpha2B adrenergic receptors (Homo sapiens, UniProt P18089) | 1.0 |
| CC1=C(c2ccc(C#N)cc2)C(Cc2c[nH]c(=S)[nH]2)CC1 (stereo not shown) | alpha2B adrenergic receptors (Homo sapiens, UniProt P18089) | 0.93 |
| S=c1[nH]cc(C2Cc3ccc(Cl)cc3C2)[nH]1 (stereo not shown) | alpha2B adrenergic receptors (Homo sapiens, UniProt P18089) | 0.85 |
| S=c1[nH]cc(C[C@H]2CCc3ccccc32)[nH]1 | alpha2B adrenergic receptors (Homo sapiens, UniProt P18089) | 0.95 |
| Fc1ccc(C2=CCCC2Cc2c[nH]c(=S)[nH]2)c(F)c1 (stereo not shown) | alpha2B adrenergic receptors (Homo sapiens, UniProt P18089) | 0.42 |
| S=c1[nH]cc(C[C@@H]2CCc3ccccc3C2)[nH]1 | alpha2B adrenergic receptors (Homo sapiens, UniProt P18089) | 0.93 |
| S=c1[nH]cc(CC2CCc3c(Cl)cccc32)[nH]1 (stereo not shown) | alpha2B adrenergic receptors (Homo sapiens, UniProt P18089) | 0.91 |
| COc1ccc(C2=CCCC2Cc2c[nH]c(=S)[nH]2)cc1 (stereo not shown) | alpha2B adrenergic receptors (Homo sapiens, UniProt P18089) | 0.56 |
| S=c1[nH]cc(CC2CCc3c(Br)cccc32)[nH]1 (stereo not shown) | alpha2B adrenergic receptors (Homo sapiens, UniProt P18089) | 0.73 |
| CCCC1=C(c2ccc(F)cc2)C(Cc2c[nH]c(=S)[nH]2)CC1 (stereo not shown) | alpha2B adrenergic receptors (Homo sapiens, UniProt P18089) | 0.98 |
| O=C1c2ccsc2CCC1Cc1c[nH]c(=S)[nH]1 (stereo not shown) | alpha2B adrenergic receptors (Homo sapiens, UniProt P18089) | 0.97 |
| Cc1cccc2c1CCC2Cc1c[nH]c(=S)[nH]1 (stereo not shown) | alpha2B adrenergic receptors (Homo sapiens, UniProt P18089) | 0.93 |
| S=c1[nH]cc(CC2CCC=C2Cl)[nH]1 (stereo not shown) | alpha2B adrenergic receptors (Homo sapiens, UniProt P18089) | 0.9 |
| O=C1c2ccccc2CC1Cc1c[nH]c(=S)[nH]1 (stereo not shown) | alpha2B adrenergic receptors (Homo sapiens, UniProt P18089) | 0.71 |
| CC1=CCC(Cc2c[nH]c(=S)[nH]2)OC1 (stereo not shown) | alpha2B adrenergic receptors (Homo sapiens, UniProt P18089) | 0.87 |
| Fc1cc(F)cc(C2=CCC[C@H]2Cc2c[nH]c(=S)[nH]2)c1 | alpha2B adrenergic receptors (Homo sapiens, UniProt P18089) | 0.83 |
